Recorded IC50 for the following compounds
# experimental-target: Arf6 (Homo sapiens (Human), UniProt P62330)
# Sequence (P62330 14-175): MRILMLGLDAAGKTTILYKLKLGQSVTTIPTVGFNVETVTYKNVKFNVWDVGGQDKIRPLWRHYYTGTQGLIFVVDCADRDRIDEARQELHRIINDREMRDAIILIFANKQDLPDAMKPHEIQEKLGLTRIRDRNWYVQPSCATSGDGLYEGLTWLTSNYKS
# assay-name: Fluorometric assay for Arf6 nucleotide exchange catalyzed by ARNO Sec7 domain (GTP-BODIPY FL)
# Format: biochemical
# experimental-parameters: 20 nM Arf6 assay; read-out: IC50 (μM) 20 nM Arf6
# Source text: FIGS. 1A-1D: Fluorometric high throughput assay for Arf6 nucleotide exchange catalyzed by ARNO Sec7 domain. FIG. 1A: Principle of the assay. FIG. 1B: SDS-PAGE analysis of N-terminally His-tagged Arf6(14-175) and ARNO(50-255) purified from the E. coli cultures by immobilized metal affinity chromatography. […] Fluorescence intensities were monitored using a Synergy 4 plate reader (BioTek) at the excitation and emission wavelengths of 490 nm and 520 nm, respectively. […]
The answer is to be given in µM; state only the numeric part.

Here is how some compounds turned out for IC50.
O=c1cc(-c2ccc([N+](=O)[O-])cc2)[nH]c2c(-c3ccc(Cl)cc3)c(CN3CCOCC3)nn12 ... 5.9
O=c1cc(Cc2ccccc2)[nH]c2c(-c3ccc(Cl)cc3)c(C(F)(F)F)nn12 ... 3.7
O=c1cc(-c2ccc([N+](=O)[O-])cc2)[nH]c2c(-c3ccc(Cl)c(Cl)c3)c(C(F)(F)F)nn12 ... 0.66
Cc1nn2c(=O)cc(-c3cccc(-c4ccncc4)c3)[nH]c2c1-c1ccc(Cl)cc1 ... 4.1
COCC(=O)Nc1ccc(-c2cc(=O)n3nc(C(F)(F)F)c(-c4ccc(Cl)cc4)c3[nH]2)cc1 ... 4.4

Request: Suppose we examine the compound `O=c1cc(-c2ccc([N+](=O)[O-])cc2)[nH]c2c(-c3ccc(Cl)c(Cl)c3)c(Cc3ccccc3)nn12` ; what IC50 value has been reported?
Response: 1.2

Request: Next compound: `CN(C)C(=O)c1ccc(-c2cc(=O)n3nc(Cc4ccccc4)c(-c4ccc(Cl)cc4)c3[nH]2)cc1`
Response: 3.2

----------
# experimental-target: Arf6 (Homo sapiens (Human))
# assay-name: Fluorometric assay for Arf6 nucleotide exchange catalyzed by ARNO Sec7 domain (GTP-BODIPY FL)
# Format: biochemical
# experimental-parameters: 20 nM Arf6 assay; read-out: IC50 (μM) 20 nM Arf6
parameter-measured: IC50 (µM)
The answer is to be given in µM; state only the numeric part.

COC(=O)c1ccc(-c2cc(=O)n3nc(C4CC4)c(-c4ccc(Cl)cc4)c3[nH]2)cc1 ... 4.1
N#Cc1ccc(-c2cc(=O)c3nc(C4CC4)c(-c4ccc(Cl)cc4)n3[nH]2)cc1 ... 16
O=C(O)c1ccccc1-c1cc(=O)n2nc(C(F)(F)F)c(-c3ccc(Cl)cc3)c2[nH]1 ... 8.1

Request: Item `Cc1nn2c(=O)cc(C3CCCC3)[nH]c2c1-c1ccc(Cl)cc1` with Arf6 (Homo sapiens (Human)) - IC50?
Response: 16

Request: Next compound: `O=c1cc(-c2ccc([N+](=O)[O-])cc2)[nH]c2c(-c3ccc(Cl)cc3)c(Cc3ccncc3)nn12`
Response: 2.4

Request: Next compound: `Cc1nn2c(=O)cc(C3CCCCC3)[nH]c2c1-c1ccc(Cl)cc1`
Response: 14

Request: Next compound: `O=C(Nc1ccc(C2=Nc3c(-c4ccc(Cl)cc4)c(C(F)(F)F)nn3C(=O)C2)cc1)c1ccccc1`
Response: 0.5

Request: Next compound: `O=c1cc(Cc2ccccc2)[nH]c2c(-c3ccc(Cl)c(Cl)c3)c(C(F)(F)F)nn12`
Response: 0.84

----------
# experimental-target: UniProt P62330
# assay-name: Fluorometric assay for Arf6 nucleotide exchange catalyzed by ARNO Sec7 domain (GTP-BODIPY FL)
# Assay type: biochemical
# experimental-parameters: 200 nM Arf6 assay; read-out: IC50 (μM) 200 nM Arf6
Recorded IC50 for the following molecules
The answer is to be given in µM; state only the numeric part.

O=c1cc(Cc2ccccc2)[nH]c2c(-c3ccccc3)c(-c3ccccc3)nn12 ... 7

Request: Suppose we examine the molecule `O=c1cc(-c2cccc(Oc3ccccc3)c2)[nH]c2c(-c3ccc(Cl)c(Cl)c3)c(C(F)(F)F)nn12` ; what IC50 value has been reported?
Response: 0.46

Request: Next molecule: `O=c1cc(-c2ccc(Oc3ccccc3)cc2)[nH]c2c(-c3ccc(Cl)c(Cl)c3)c(C(F)(F)F)nn12`
Response: 1.1

----------
Recorded IC50 for the following compounds
# experimental-target: Arf6 (Homo sapiens (Human))
# assay-name: Fluorometric assay for Arf6 nucleotide exchange catalyzed by ARNO Sec7 domain (GTP-BODIPY FL)
# Assay type: biochemical
# experimental-parameters: 20 nM Arf6 assay; read-out: IC50 (μM) 20 nM Arf6
The answer is to be given in µM; state only the numeric part.

Here is how some compounds turned out for IC50.
O=c1cc(-c2ccc(Cl)cc2)[nH]c2c(-c3ccc(Cl)cc3)c(C(F)(F)F)nn12 [Compound 25] ... 1.4
Cc1nn2c(=O)cc(-c3ccc([N+](=O)[O-])cc3)[nH]c2c1-c1ccc(S(C)(=O)=O)cc1 [Compound 94] ... 8.8
Cc1nn2c(=O)cc(-c3ccc(NC(=O)NCc4ccccc4)cc3)[nH]c2c1-c1ccc(Cl)cc1 [Compound 42] ... 2.1
Cc1nn2c(=O)cc(-c3ccc(F)cc3)[nH]c2c1-c1ccc(Cl)cc1 [Compound 93] ... 8.2
O=c1cc(-c2ccc(-c3ccncc3)cc2)[nH]c2c(-c3ccc(Cl)cc3)c(C(F)(F)F)nn12 [Compound 47] ... 2.4

Request: Item COc1cc(-c2c(C)nn3c(=O)cc(-c4ccc([N+](=O)[O-])cc4)[nH]c23)ccc1Cl [Compound 26] with Arf6 (Homo sapiens (Human)) - IC50?
Response: 1.4

Request: Next compound: CCS(=O)(=O)Nc1ccc(-c2cc(=O)n3nc(C)c(-c4ccc(Cl)cc4)c3[nH]2)cc1 [Compound 96]
Response: 10

----------
# experimental-target: Arf6 (Homo sapiens (Human), UniProt P62330)
# assay-name: Fluorometric assay for Arf6 nucleotide exchange catalyzed by ARNO Sec7 domain (GTP-BODIPY FL)
# Type: biochemical
# experimental-parameters: 20 nM Arf6 assay; read-out: IC50 (μM) 20 nM Arf6
Recorded log10(IC50) for the following molecules
Heads up, the numbers here are log10 of IC50 in µM units.

Here is how some molecules turned out for log10(IC50).
CC(=O)Nc1cccc(-c2cc(=O)n3nc(C(F)(F)F)c(-c4ccc(Cl)cc4)c3[nH]2)c1 ... 0.63
Cc1ccn2c(=O)cc(CSc3nc(C)cc(=O)[nH]3)nc2c1 ... 1.04
O=c1cc(-c2ccc([N+](=O)[O-])cc2)[nH]c2c(-c3ccc(Cl)c(Cl)c3)c(C3CC3)nn12 [Compound 22] ... 0.08

Request: Suppose we examine the molecule `CSc1ccc(Cc2nn3c(=O)cc(-c4ccc([N+](=O)[O-])cc4)[nH]c3c2-c2ccc(Cl)cc2)cc1` ; what log10(IC50) value has been reported?
Response: 0.48

Request: Next molecule: `O=c1cc(-c2ccc([N+](=O)[O-])cc2)[nH]c2c(-c3ccc(Cl)cc3)c(CC3CCOCC3)nn12`
Response: 0.56

Request: Next molecule: `Cc1nn2c(=O)cc(-c3ccc([N+](=O)[O-])cc3)[nH]c2c1Cc1ccc(Cl)cc1`
Response: 0.78

Request: Next molecule: `O=c1cc(-c2ccc([N+](=O)[O-])cc2)[nH]c2c(-c3ccc(Cl)cc3)c(CO)nn12`
Response: 0.89

Request: Next molecule: `O=C1/C(=N/Nc2nc3ccccc3s2)C(c2ccccc2)=NN1c1nc(-c2ccccc2)cs1`
Response: 1.20

----------
# experimental-target: Arf6 (Homo sapiens (Human), UniProt P62330)
# assay-name: Fluorometric assay for Arf6 nucleotide exchange catalyzed by ARNO Sec7 domain (GTP-BODIPY FL)
# Assay type: biochemical
# experimental-parameters: 200 nM Arf6 assay; read-out: IC50 (μM) 200 nM Arf6
With a cut-off of 4 µM, any IC50 strictly below it is called true; any IC50 meeting it or above is called false.

Observe how each entry below is paired with its result.
O=c1c(Cl)c(-c2ccc([N+](=O)[O-])cc2)[nH]c2c(-c3ccc(Cl)cc3)c(Cc3ccccc3)nn12 [Compound 24] ... true
O=c1cc(-c2ccc([N+](=O)[O-])cc2)[nH]c2c(-c3ccc(Cl)cc3)cnn12 [Compound 60] ... true
O=C(O)c1ccc(C2Nc3c(Br)cccc3C3C=CCC32)cc1 (stereo not drawn) [Compound 127] ... false

Request: Determine whether this compound shows IC50 lower than 4 µM (ties excluded): O=C1c2ccccc2C(=O)C1C1=NC2c3ccccc3OC2S1 (stereo not drawn) [Compound 141]
Response: false

Request: Next compound: O=c1c(-c2cccc3ccccc23)c(C(F)(F)F)oc2cc(O)ccc12 [Compound 140]
Response: false

Request: Next compound: O=c1cc(-c2ccc([N+](=O)[O-])cc2)[nH]c2c(-c3ccccc3)c(C(F)(F)F)nn12 [Compound 72]
Response: true

Request: Next compound: Cc1nn2c(=O)cc(-c3ccc([N+](=O)[O-])cc3)[nH]c2c1-c1ccc(Cl)cc1 [Compound 39]
Response: false

Request: Next compound: Cc1nn2c(=O)cc(-c3ccc(Cl)cc3)[nH]c2c1-c1ccc(F)cc1 [Compound 105]
Response: false

Request: Next compound: O=c1cc(-c2ccc([N+](=O)[O-])cc2)[nH]c2c(-c3ccc(Cl)cc3)c(Cc3ccccc3)nn12 [Compound 38]
Response: true

Request: Next compound: COc1ccc(-c2cc(=O)n3nc(Cc4ccccc4)c(-c4ccc(Cl)cc4)c3[nH]2)cc1 [Compound 83]
Response: false

Request: Next compound: CCOc1ccc(-c2nn(-c3ccccc3)cc2/C=C2\SC(=S)N(CCC(=O)O)C2=O)cc1C [Compound 116]
Response: true

Request: Next compound: CC(C)(C)c1ccc(S(=O)(=O)Nc2ccc(O)c3ccccc23)cc1 [Compound 126]
Response: false

Provenance of the data: patent US10849901B2
